Biological target: SHP2-C SH2;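 note: peptide library displayed on the E. coli surface as eCPX fusions, selected cells deep-sequenced, score is each peptide's frequency after selection divided by its frequency in the input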
Assay: SH2 binding enrichment of the phosphorylated peptide, bacterial display (enrichment ratio); higher = better substrate or ligand; peptides without Tyr show the background
Threshold rule: SH2 binding enrichment greater than or equal to 0.8 is criterion met; below that, criterion not met.

[[record]]
sequenceentry = "GKLIFYDLRGE [KARS1_Y145]"
assayedsystem = "SHP2-C SH2"
discretelabel = "criterion met"

[[record]]
sequenceentry = "EVASVYESYQP [MAVS_Y92_Q93E]"
assayedsystem = "SHP2-C SH2"
discretelabel = "criterion not met"

[[record]]
sequenceentry = "FLAVGYHKPFI [IDS_Y225_H229Y_YF]"
assayedsystem = "SHP2-C SH2"
discretelabel = "criterion met"

[[record]]
sequenceentry = "KFDLMYAKWAF [TUBA3E_Y399]"
assayedsystem = "SHP2-C SH2"
discretelabel = "criterion met"

[[record]]
sequenceentry = "MPPHIYAITDT [MYH9_Y151]"
assayedsystem = "SHP2-C SH2"
discretelabel = "criterion not met"

[[record]]
sequenceentry = "STTIHYNYMCN [TP53_Y234_C229S]"
assayedsystem = "SHP2-C SH2"
discretelabel = "criterion met"

[[record]]
sequenceentry = "SKAYAYVHFDS [PABPC5_Y149_G146A]"
assayedsystem = "SHP2-C SH2"
discretelabel = "criterion met"


====

Target: Hck (UniProt P08631)
Sequence (P08631 whole entry, looked up): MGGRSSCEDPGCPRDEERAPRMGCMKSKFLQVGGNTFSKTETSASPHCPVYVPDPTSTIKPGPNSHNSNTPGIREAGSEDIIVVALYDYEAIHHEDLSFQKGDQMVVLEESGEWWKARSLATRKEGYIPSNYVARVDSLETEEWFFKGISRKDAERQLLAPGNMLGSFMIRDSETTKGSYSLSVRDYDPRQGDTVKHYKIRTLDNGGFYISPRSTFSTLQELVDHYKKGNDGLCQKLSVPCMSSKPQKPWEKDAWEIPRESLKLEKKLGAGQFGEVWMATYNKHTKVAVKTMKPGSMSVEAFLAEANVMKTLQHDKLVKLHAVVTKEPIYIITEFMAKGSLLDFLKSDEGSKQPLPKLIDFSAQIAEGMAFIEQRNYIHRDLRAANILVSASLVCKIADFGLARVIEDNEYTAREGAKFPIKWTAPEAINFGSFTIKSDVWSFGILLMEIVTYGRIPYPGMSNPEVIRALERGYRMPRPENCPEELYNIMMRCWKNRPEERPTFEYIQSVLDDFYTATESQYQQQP
Test: phosphorylation enrichment, bacterial display (enrichment ratio); higher = better substrate or ligand; peptides without Tyr show the background
Threshold rule: phosphorylation enrichment greater than or equal to 0.7 is Yes; below that, No.

[[record]]
sequenceentry = "FLNSIYKSRDE [ROS1_Y2227]"
discretelabel = "No"

[[record]]
sequenceentry = "GIVEDYRPPVF [ACVRL1_Y421_F425V_YF]"
discretelabel = "No"

[[record]]
sequenceentry = "GEFHVYRHLRW [PRKRIP1_Y82_R87W]"
discretelabel = "No"

[[record]]
sequenceentry = "MSRYIYSTDYY [NTRK1_Y676_D674Y]"
discretelabel = "Yes"

[[record]]
sequenceentry = "LSSISYVGCSL [ADGRD1_Y571]"
discretelabel = "Yes"

[[record]]
sequenceentry = "EERNPYYSSAR [MCCC2_Y520_G517R]"
discretelabel = "Yes"

[[record]]
sequenceentry = "ITRDIYETDFF [INSR_Y1185_M1180I_YF]"
discretelabel = "Yes"

[[record]]
sequenceentry = "VERRVYAEDPF [PCCA_Y401_C398R_YF]"
discretelabel = "No"

[[record]]
sequenceentry = "NLNGKYFKPRA [ANGPTL3_Y417_N418Y_YF]"
discretelabel = "No"

[[record]]
sequenceentry = "TCFDKYTGSTY [FN1_Y101_N104S]"
discretelabel = "No"

[[record]]
sequenceentry = "NTFENYWPFFQ [GATM_Y103_K102N_YF]"
discretelabel = "Yes"

[[record]]
sequenceentry = "FGSVMYEFVGK [SLC18A1_Y251]"
discretelabel = "Yes"


====

Biological target: Fyn (UniProt P06241)
Sequence (P06241 whole entry, looked up): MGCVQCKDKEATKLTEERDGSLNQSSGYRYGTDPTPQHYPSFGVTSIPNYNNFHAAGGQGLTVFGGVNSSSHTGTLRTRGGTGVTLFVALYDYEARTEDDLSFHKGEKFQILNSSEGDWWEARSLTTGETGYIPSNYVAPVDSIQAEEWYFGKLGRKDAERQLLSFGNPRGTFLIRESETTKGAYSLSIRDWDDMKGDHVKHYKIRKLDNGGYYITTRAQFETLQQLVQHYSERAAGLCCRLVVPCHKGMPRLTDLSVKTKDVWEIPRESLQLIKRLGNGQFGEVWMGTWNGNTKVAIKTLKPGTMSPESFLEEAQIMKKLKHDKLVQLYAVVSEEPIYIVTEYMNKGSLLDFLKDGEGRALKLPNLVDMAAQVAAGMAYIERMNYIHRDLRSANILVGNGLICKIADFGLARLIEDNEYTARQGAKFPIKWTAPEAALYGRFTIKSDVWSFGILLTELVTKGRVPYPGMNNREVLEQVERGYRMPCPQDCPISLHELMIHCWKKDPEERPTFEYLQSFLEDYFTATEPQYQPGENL
Assay: phosphorylation enrichment, bacterial display (enrichment ratio); higher = better substrate or ligand; peptides without Tyr show the background
Categories are defined by ranges of phosphorylation enrichment, namely group 1: < 0.4; group 2: ≥ 0.4 and < 0.5; group 3: ≥ 0.5

[[record]]
sequenceentry = "WVYNHYRCIIW [BRCA2_Y2624_W2626C]"
assayedsystem = "Fyn (UniProt P06241)"
discretelabel = "group 3"

[[record]]
sequenceentry = "FVHDNYVIWRT [CPS1_Y1450_R1453W]"
assayedsystem = "Fyn (UniProt P06241)"
discretelabel = "group 3"

[[record]]
sequenceentry = "TVFENYVADIK [RHOA_Y42_E47K]"
assayedsystem = "Fyn (UniProt P06241)"
discretelabel = "group 3"

[[record]]
sequenceentry = "GDEEDYEEIPG [EGFR_opt_E_2015]"
assayedsystem = "Fyn (UniProt P06241)"
discretelabel = "group 3"

[[record]]
sequenceentry = "DKPENYRRLDI [VHL_Y175_V170D]"
assayedsystem = "Fyn (UniProt P06241)"
discretelabel = "group 2"

[[record]]
sequenceentry = "SHLEDYPFDAE [AKR1B10_Y310_N313D]"
assayedsystem = "Fyn (UniProt P06241)"
discretelabel = "group 2"

[[record]]
sequenceentry = "GCRSKYVGLWG [KCNQ1_Y184]"
assayedsystem = "Fyn (UniProt P06241)"
discretelabel = "group 1"

[[record]]
sequenceentry = "VKFLGYPPPEI [KDR_Y357_A352V_YF]"
assayedsystem = "Fyn (UniProt P06241)"
discretelabel = "group 2"

[[record]]
sequenceentry = "LSDGPYSSPFE [EPOR_Y485_N487S_YF]"
assayedsystem = "Fyn (UniProt P06241)"
discretelabel = "group 3"

[[record]]
sequenceentry = "GEVKAYGAGLL [TH_Y419]"
assayedsystem = "Fyn (UniProt P06241)"
discretelabel = "group 1"

[[record]]
sequenceentry = "GNFSGYDDAWD [POLR1C_Y36_YF]"
assayedsystem = "Fyn (UniProt P06241)"
discretelabel = "group 2"

[[record]]
sequenceentry = "KTGNIYRTEFG [MRPL3_Y265_M261T_YF]"
assayedsystem = "Fyn (UniProt P06241)"
discretelabel = "group 2"

